Study System: human TLR7 (Homo sapiens)
Sequence (Q9NYK1 27-1049): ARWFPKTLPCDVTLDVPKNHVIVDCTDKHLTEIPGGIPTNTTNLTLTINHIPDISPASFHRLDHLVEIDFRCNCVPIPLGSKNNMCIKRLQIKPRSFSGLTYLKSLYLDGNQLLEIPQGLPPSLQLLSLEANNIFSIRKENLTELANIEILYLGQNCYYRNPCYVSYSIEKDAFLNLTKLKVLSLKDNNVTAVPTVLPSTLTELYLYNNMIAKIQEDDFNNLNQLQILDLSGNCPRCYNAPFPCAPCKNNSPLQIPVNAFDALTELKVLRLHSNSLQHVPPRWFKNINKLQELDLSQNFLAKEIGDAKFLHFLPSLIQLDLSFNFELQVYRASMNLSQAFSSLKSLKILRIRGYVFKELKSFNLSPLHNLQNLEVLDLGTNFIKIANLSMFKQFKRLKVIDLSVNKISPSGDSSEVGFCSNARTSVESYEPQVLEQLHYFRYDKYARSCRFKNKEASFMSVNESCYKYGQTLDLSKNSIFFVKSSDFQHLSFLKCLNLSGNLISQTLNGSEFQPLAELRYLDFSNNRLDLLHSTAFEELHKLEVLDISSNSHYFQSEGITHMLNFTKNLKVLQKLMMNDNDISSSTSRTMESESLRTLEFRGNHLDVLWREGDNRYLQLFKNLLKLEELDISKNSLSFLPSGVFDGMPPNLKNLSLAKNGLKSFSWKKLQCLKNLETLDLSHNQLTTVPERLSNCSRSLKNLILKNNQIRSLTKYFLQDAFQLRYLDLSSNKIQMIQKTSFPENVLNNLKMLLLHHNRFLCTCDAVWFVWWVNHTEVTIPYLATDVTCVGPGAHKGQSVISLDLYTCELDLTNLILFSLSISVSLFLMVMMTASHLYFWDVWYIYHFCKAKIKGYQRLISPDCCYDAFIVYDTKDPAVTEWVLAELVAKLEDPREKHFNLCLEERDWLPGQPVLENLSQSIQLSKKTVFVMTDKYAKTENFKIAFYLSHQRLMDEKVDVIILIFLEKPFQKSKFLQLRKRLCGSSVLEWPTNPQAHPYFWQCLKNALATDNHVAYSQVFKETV
Assay: TLR7 inhibition reporter assay (HEK-Blue SEAP)
Experimental Parameters: HEK-Blue cells overexpressing human TLR7, stimulated with gardiquimod 7.5 μM, 22 hour incubation
The label is Fulfilled for IC50 below 2 nM and Not fulfilled for IC50 equal to or exceeding 2 nM.

[
  {
    "Compound": "Cc1cc(-c2cc3[nH]nc(C4CCN(C(=O)CCN(C)C)CC4)c3cc2C(C)C)cn2ncnc12 [Example 122]",
    "Class Name": "Not fulfilled"
  },
  {
    "Compound": "Cc1cc2c(C3CCN(CCC#N)CC3)n[nH]c2cc1-c1cc(C)c2ncnn2c1 [Example 72]",
    "Class Name": "Not fulfilled"
  },
  {
    "Compound": "Cc1cc(-c2cc(C)c3ncnn3c2)cc2[nH]nc(OC3CCC(N(C)C)CC3)c12 (single isomer, unassigned) [Example 179]",
    "Class Name": "Not fulfilled"
  },
  {
    "Compound": "COC1CN(C2CCC(c3n[nH]c4cc(-c5cc(C)c6ncnn6c5)c(C(C)C)cc34)CC2)C1 (stereo not shown) [Example 144]",
    "Class Name": "Fulfilled"
  },
  {
    "Compound": "Cc1cc2c(OCCN(C)C)n[nH]c2cc1-c1cc(C)c2ncnn2c1 [Example 172]",
    "Class Name": "Not fulfilled"
  },
  {
    "Compound": "CCc1cc2c(C3CCN(CCC(F)(F)F)CC3)n[nH]c2cc1-c1cc(C)c2ncnn2c1 [Example 108]",
    "Class Name": "Not fulfilled"
  },
  {
    "Compound": "Cc1cc(-c2cc3[nH]nc(C4CCC(N5CCC(S(C)(=O)=O)C5)CC4)c3cc2C(C)C)cn2ncnc12 (single isomer, unassigned) [Example 211]",
    "Class Name": "Not fulfilled"
  },
  {
    "Compound": "Cc1cc(-c2cc3[nH]nc(C4CCC(N5CC(C)(C)C5)CC4)c3cc2C(C)C)cn2ncnc12 (single isomer, unassigned) [Example 137]",
    "Class Name": "Not fulfilled"
  },
  {
    "Compound": "Cc1cc(-c2cc(C)c3ncnn3c2)cc2[nH]nc(C3CCCN(C)C3)c12 (stereo not shown) [Example 61]",
    "Class Name": "Not fulfilled"
  },
  {
    "Compound": "Cc1cc(-c2cc(C)c3ncnn3c2)cc2[nH]nc(OC3CCN(CC(=O)N(C)C)CC3)c12 [Example 176]",
    "Class Name": "Not fulfilled"
  },
  {
    "Compound": "Cc1cc2c(C3CCN(CCS(C)(=O)=O)CC3)n[nH]c2cc1-c1cc(C)c2ncnn2c1 [Example 68]",
    "Class Name": "Not fulfilled"
  },
  {
    "Compound": "Cc1cc2c(OC3CCN(C)CC3)n[nH]c2cc1-c1cc(C)c2ncnn2c1 [Example 171]",
    "Class Name": "Not fulfilled"
  },
  {
    "Compound": "Cc1cc(-c2cc3[nH]nc(C4CCN(C5CCOCC5)CC4)c3cc2C(C)C)cn2ncnc12 [Example 116]",
    "Class Name": "Fulfilled"
  },
  {
    "Compound": "CCc1cc2c(OC3CCC(N(C)C)CC3)n[nH]c2cc1-c1cc(C)c2ncnn2c1 (single isomer, unassigned) [Example 192]",
    "Class Name": "Fulfilled"
  },
  {
    "Compound": "Cc1cc2c(C3CCC(NC(C)C)CC3)n[nH]c2cc1-c1cc(C)c2ncnn2c1 (single isomer, unassigned) [Example 39]",
    "Class Name": "Not fulfilled"
  },
  {
    "Compound": "Cc1cc2c(C3CCN(CC(N)=O)CC3)n[nH]c2cc1-c1cc(C)c2ncnn2c1 [Example 70]",
    "Class Name": "Not fulfilled"
  },
  {
    "Compound": "Cc1cc(-c2cc3[nH]nc(C4CCC(N5CC6(COC6)C5)CC4)c3cc2C(C)C)cn2ncnc12 (single isomer, unassigned) [Example 128]",
    "Class Name": "Fulfilled"
  },
  {
    "Compound": "Cc1cc2c(OC3CCC(N(C)C)CC3)n[nH]c2cc1-c1cc(C)c2ncnn2c1 (single isomer, unassigned) [Example 181]",
    "Class Name": "Not fulfilled"
  },
  {
    "Compound": "Cc1cc(-c2cc3[nH]nc(C4CCC(NCC(=O)N(C)C)CC4)c3cc2C(C)C)cn2ncnc12 (single isomer, unassigned) [Example 124]",
    "Class Name": "Fulfilled"
  },
  {
    "Compound": "CCc1cc2c(C3CCN(Cc4cn(C)nn4)CC3)n[nH]c2cc1-c1cc(C)c2ncnn2c1 [Example 105]",
    "Class Name": "Not fulfilled"
  },
  {
    "Compound": "Cc1cc(-c2cc3[nH]nc(C4CCC(N5CCC(F)C5)CC4)c3cc2C(C)C)cn2ncnc12 (stereo not shown) [Example 164]",
    "Class Name": "Fulfilled"
  },
  {
    "Compound": "CCc1cc2c(C3CCNCC3)n[nH]c2cc1-c1cc(C)c2ncnn2c1 [Example 82]",
    "Class Name": "Fulfilled"
  },
  {
    "Compound": "Cc1cc(-c2cc3[nH]nc(C4CCC(N5CC(F)C5)CC4)c3cc2C(C)C)cn2ncnc12 (stereo not shown) [Example 152]",
    "Class Name": "Fulfilled"
  },
  {
    "Compound": "Cc1cc(-c2cc(C)c3ncnn3c2)cc2[nH]nc(C3CCN(CC(=O)N(C)C)CC3)c12 [Example 76]",
    "Class Name": "Not fulfilled"
  },
  {
    "Compound": "Cc1cc(-c2cc3[nH]nc(C4CCC(N5CCOCC5)CC4)c3cc2C(C)C)cn2ncnc12 (stereo not shown) [Example 133]",
    "Class Name": "Fulfilled"
  }
]
